These measurements were taken from patent US20200283478A1.

MEASURED_TARGET: T1, His-tagged, full-length PCSK9 (human, UniProt Q8NBP7 31-692)
T1 construct: The secreted protein is autocleaved into a prodomain and a catalytic/Cys-rich chain that starts at S153; also called His-PCSK9
T1 sequence (Q8NBP7 other isoform, or with tags, fused parts or gaps limits assumed): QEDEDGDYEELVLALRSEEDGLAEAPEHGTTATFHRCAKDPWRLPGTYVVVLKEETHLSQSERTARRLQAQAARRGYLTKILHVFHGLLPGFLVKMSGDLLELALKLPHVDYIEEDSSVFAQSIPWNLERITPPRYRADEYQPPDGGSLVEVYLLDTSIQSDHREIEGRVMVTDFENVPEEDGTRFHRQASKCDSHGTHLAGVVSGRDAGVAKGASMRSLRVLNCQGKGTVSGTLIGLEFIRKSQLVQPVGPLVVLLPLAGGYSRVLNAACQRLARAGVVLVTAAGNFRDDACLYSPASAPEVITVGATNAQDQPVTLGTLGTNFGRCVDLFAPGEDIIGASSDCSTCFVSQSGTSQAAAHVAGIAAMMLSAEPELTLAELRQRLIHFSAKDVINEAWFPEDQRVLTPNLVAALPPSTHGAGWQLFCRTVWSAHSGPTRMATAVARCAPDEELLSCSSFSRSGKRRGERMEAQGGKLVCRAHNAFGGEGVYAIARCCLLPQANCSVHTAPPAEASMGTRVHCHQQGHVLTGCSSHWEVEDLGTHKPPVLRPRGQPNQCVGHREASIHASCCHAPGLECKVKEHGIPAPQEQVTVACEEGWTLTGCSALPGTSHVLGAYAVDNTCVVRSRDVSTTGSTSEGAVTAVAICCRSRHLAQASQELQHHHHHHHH
ASSAY_NOTES: TR-FRET competition; His-PCSK9, competitor EGF(A)-Fc
Square brackets hold non-standard residues; d marks the D form. Ends that are not written are not given here. hArg = N=C(N)NCCCC[C@H](N)C(=O)O
METRIC_NAME: IC50 (µM)
Lab book: enter the figure in µM, no units written.

Worked cases, answers included:
BINDER	IC50 [µM]
WNLVRIGTLR (also: further groups not given here, Structure printed only as a drawing) [Compound 182]	14
WNLVRIGLLR (also: further groups not given here, Structure printed only as a drawing) [Compound 149]	11

Now look at this entry.
Exercise: Give IC50 for the following binder: WNLV[hArg]IGLLR (also: further groups not given here, Structure printed only as a drawing) [Compound 221]
Solution: 9.5
